Tested On: T1, UNK ZnF1-3 (human, UniProt Q9C0B0 31-174)
T1 sequence: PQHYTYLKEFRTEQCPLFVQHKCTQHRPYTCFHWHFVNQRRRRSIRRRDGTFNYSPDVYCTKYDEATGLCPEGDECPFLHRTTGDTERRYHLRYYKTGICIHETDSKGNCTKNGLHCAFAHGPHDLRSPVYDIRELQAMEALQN
Method Summary: nsRBNS (natural sequence RNA bind-n-seq); RBNS binding buffer (assumed for nsRBNS): 25 mM Tris pH 7.5, 150 mM KCl, 3 mM MgCl2, 0.01% Triton X-100, 500 ug/ml BSA, 20 U/ml SUPERase-In, 4 C; UNK is unkempt and MSI1 is Musashi-1; names of the RNAs are library labels; protein concentration not given here; high values mean tight binding
In all, about 24,000 sequences were measured (“enrichment r”: median about 0.99, highest 2% from about 3.7 on). This excerpt belongs to a sample that is enriched for the highest values.
Reported Property: binding signal (enrichment R)
All answers are understood in enrichment R, so give the number only.

Binder	Reported Property	Reported Result
chr2:151326667:151326668:-_ENSG00000115963_ENST00000263895|hu_hu|FALSE|FALSE (ssRNA) RNA: GGGAGUUCUACAGUCCGACGAUCUUUAUUUGUCUUAUUUACACAUGCCAAGGUGGCAACGUGAAAAAUGUCUCUGACGCUAUUUUCCGACUGUAAAGCUGAGCAUUCGAUAUAAGUAGCUGCUCCAAUCUGUUUGGCCAUAUUCAACAGAGGAUUGAGCAUCA	binding signal	0.818

# query: binding signal of entry chr14:21319500:21319501:-_ENSMUSG00000021816_ENSMUST00000161445|mus_hu|motif|central (ssRNA) RNA: GGGAGUUCUACAGUCCGACGAUCGAGUUGUAUUCCAGGGCAUGAGGGAAGCAGGCCACCAAAGUAAAGGGAAAUACCAAACGGCAGUGGCAAUCAAUACAGGUCAAUAAUUGUGAAAAAUUAGCACAUGGUUCCAUUUAGUUUCAACAGAGGAUUGAGCAUCA 2.39
